Data credit: patent US20220088146A1

# Target: human melanocortin-1 receptor (human, UniProt Q01726 1-317)
# Sequence (Q01726 whole entry): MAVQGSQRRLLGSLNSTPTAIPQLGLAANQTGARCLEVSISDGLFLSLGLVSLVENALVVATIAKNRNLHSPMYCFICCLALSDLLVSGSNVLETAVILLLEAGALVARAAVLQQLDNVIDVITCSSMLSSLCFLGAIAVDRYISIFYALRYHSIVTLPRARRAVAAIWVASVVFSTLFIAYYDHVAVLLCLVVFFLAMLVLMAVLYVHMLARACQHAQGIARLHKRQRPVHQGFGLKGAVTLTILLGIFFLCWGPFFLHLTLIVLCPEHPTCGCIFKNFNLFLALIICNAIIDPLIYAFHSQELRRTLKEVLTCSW
# Test Summary: cell-based or functional assay
Bridge positions count the residues as written; N and C are the ends. Square brackets hold non-standard residues; d marks the D form. * marks the point of attachment. Cyclohexylacetyl = O=C(CC1CCCCC1)*; Cyclopropanecarbonyl = O=C(C1CC1)*; Nle = CCCC[C@H](N)C(=O)O; Dab = NCC[C@H](N)C(=O)O; PhAc = O=C(Cc1ccccc1)*
The entries below come with measured MC-1 Emax (average; cAMP HBL) values attached.
Report only the number, with the unit % understood.

Binder: Ac-[Nle]EHFR[Dab]W-NH2 (lactam 2-6, also called 9.8) [Ac-Nle-cyclo(Glu-His-Phe-Arg-Dab)-Trp-NH2]
Unit Descriptor: %
MC-1 Emax (average; cAMP HBL): 88

If you can, please state the reported MC-1 Emax (average; cAMP HBL) value of Ac-[Nle]CH[dF]RCW-NH2 (disulfide 2-6, also called 9.5) [Ac-Nle-cyclo(Cys-His-D-Phe-Arg-Cys)-Trp-NH2] .
87

Check Cyclopropanecarbonyl-EH[dF]R[Dab]W-NH2 (lactam 1-5; SMILES N=C(N)NCCC[C@@H]1NC(=O)[C@@H](Cc2ccccc2)NC(=O)[C@H](Cc2c[nH]cn2)NC(=O)[C@@H](NC(=O)C2CC2)CCC(=O)NCC[C@@H](C(=O)N[C@@H](Cc2c[nH]c3ccccc23)C(N)=O)NC1=O, also called 9.19) [cyclo-propanoyl-cyclo(Glu-His-D-Phe-Arg-Dab)-Trp-NH2] too.
83

Check Cyclohexylacetyl-EH[dF]R[Dab]W-NH2 (lactam 1-5, also called 9.22) [cyclohexyl acetyl-cyclo(Glu-His-D-Phe-Arg-Dab)-Trp-NH2] too.
85

Check PhAc-EH[dF]R[Dab]W-NH2 (lactam 1-5, also called 9.23) [phenyl acetyl-cyclo(Glu-His-D-Phe-Arg-Dab)-Trp-NH2] too.
82
